Mice_PK_IV_Cl values by entry
TEST NAME: Pharmacokinetic screening, iv
Format: in vivo
COND: CD-1 mice, 3 mg/kg iv
OBSERVATION TYPE: Mice_PK_IV_Cl (mL/min/kg)

COMPOUND: C/C(=C\COc1ccccc1CN(C)C(=O)c1ccc(-c2ccco2)c(F)c1)CCC(=O)O
OBSERVATION TYPE: Mice_PK_IV_Cl
UNIT ABBREV: mL/min/kg
EXPERIMENTAL VALUE: 34.30
--
COMPOUND: CN(Cc1ccccc1OCc1cccc(CCC(=O)O)c1)C(=O)c1ccc(-c2ccco2)cc1
OBSERVATION TYPE: Mice_PK_IV_Cl
UNIT ABBREV: mL/min/kg
EXPERIMENTAL VALUE: 173.05
--
COMPOUND: CN(Cc1ccccc1/C=C/CCCCC(=O)O)C(=O)c1ccc(-c2ccco2)cc1
OBSERVATION TYPE: Mice_PK_IV_Cl
UNIT ABBREV: mL/min/kg
EXPERIMENTAL VALUE: 9.68
--
COMPOUND: C/C(=C\COc1ccccc1CN(C)C(=O)c1ccc(-c2ccc(C)o2)cc1)CCC(=O)O
OBSERVATION TYPE: Mice_PK_IV_Cl
UNIT ABBREV: mL/min/kg
EXPERIMENTAL VALUE: 23.10
--
COMPOUND: CC(CCOc1ccccc1CN(C)C(=O)c1ccc(-c2ccco2)cc1)CCC(=O)O (stereo not shown)
OBSERVATION TYPE: Mice_PK_IV_Cl
UNIT ABBREV: mL/min/kg
EXPERIMENTAL VALUE: 4.20
--
COMPOUND: C/C(=C\CCCOc1ccccc1CN(C)C(=O)c1ccc(-c2ccco2)cc1)C(=O)O
OBSERVATION TYPE: Mice_PK_IV_Cl
UNIT ABBREV: mL/min/kg
EXPERIMENTAL VALUE: 3.92
--
COMPOUND: C/C(=C\COc1ccccc1CN(C)C(=O)c1ccc(-c2ccco2)c(Cl)c1)CCC(=O)O
OBSERVATION TYPE: Mice_PK_IV_Cl
UNIT ABBREV: mL/min/kg
EXPERIMENTAL VALUE: 34.65
--
COMPOUND: CN(Cc1ccccc1OCCC[C@H]1CC1C(=O)O)C(=O)c1ccc(-c2ccco2)cc1 (single isomer, unassigned)
OBSERVATION TYPE: Mice_PK_IV_Cl
UNIT ABBREV: mL/min/kg
EXPERIMENTAL VALUE: 1.70
--
COMPOUND: CN(Cc1ccccc1OCCCCC(C)(C)C(=O)O)C(=O)c1ccc(-c2ccco2)cc1
OBSERVATION TYPE: Mice_PK_IV_Cl
UNIT ABBREV: mL/min/kg
EXPERIMENTAL VALUE: 1.03
--
COMPOUND: CN(Cc1ccccc1OCCC[C@@H]1C[C@@H]1C(=O)O)C(=O)c1ccc(-c2ccco2)cc1 (single isomer, unassigned)
OBSERVATION TYPE: Mice_PK_IV_Cl
UNIT ABBREV: mL/min/kg
EXPERIMENTAL VALUE: 1.90
--
COMPOUND: C/C(=C\COc1ccc(F)cc1CN(C)C(=O)c1ccc(-c2ccco2)cc1)CCC(=O)O
OBSERVATION TYPE: Mice_PK_IV_Cl
UNIT ABBREV: mL/min/kg
EXPERIMENTAL VALUE: 23.00
--
COMPOUND: CC(CCCCOc1ccccc1CN(C)C(=O)c1ccc(-c2ccco2)cc1)C(=O)O (stereo not shown)
OBSERVATION TYPE: Mice_PK_IV_Cl
UNIT ABBREV: mL/min/kg
EXPERIMENTAL VALUE: 2.78
--
COMPOUND: CN(Cc1ccccc1OCCCC1CC1C(=O)O)C(=O)c1ccc(-c2ccco2)cc1 (stereo not shown)
OBSERVATION TYPE: Mice_PK_IV_Cl
UNIT ABBREV: mL/min/kg
EXPERIMENTAL VALUE: 3.08
--
COMPOUND: C/C(=C\COc1ccc(C)cc1CN(C)C(=O)c1ccc(-c2ccco2)cc1)CCC(=O)O
OBSERVATION TYPE: Mice_PK_IV_Cl
UNIT ABBREV: mL/min/kg
EXPERIMENTAL VALUE: 5.10
--
COMPOUND: C/C(=C\COc1ccccc1CN(C)C(=O)c1ccc2oc(C)cc2c1)CCC(=O)O
OBSERVATION TYPE: Mice_PK_IV_Cl
UNIT ABBREV: mL/min/kg
EXPERIMENTAL VALUE: 40.02

Taken from patent US10188627B2.
